B1: Arabidopsis thaliana cryptochrome 2 (CRY2, UniProt Q96524), residues 1-535 fused after the Gal4 DNA-binding domain (Gal4BD-CRY2(535)); mutagenized window 321-412, Q96524 (parent)
chain: MKMDKKTIVWFRRDLRIEDNPALAAAAHEGSVFPVFIWCPEEEGQFYPGRASRWWMKQSLAHLSQSLKALGSDLTLIKTHNTISAILDCIRVTGATKVVFNHLYDPVSLVRDHTVKEKLVERGISVQSYNGDLLYEPWEIYCEKGKPFTSFNSYWKKCLDMSIESVMLPPPWRLMPITAAAEAIWACSIEELGLENEAEKPSNALLTRAWSPGWSNADKLLNEFIEKQLIDYAKNSKKVVGNSTSLLSPYLHFGEISVRHVFQCARMKQIIWARDKNSEGEESADLFLRGIGLREYSRYICFNFPFTHEQSLLSHLRFFPWDADVDKFKAWRQGRTGYPLVDAGMRELWATGWMHNRIRVIVSSFAVKFLLLPWKWGMKYFWDTLLDADLECDILGWQYISGSIPDGHELDRLDNPALQGAKYDPEGEYIRQWLPELARLPTEWIHHPWDAPLTVLKASGVELGTNYAKPIVDIDTARELLAKAISRTREAQIMIGAAPDEIVADSFEALGANTIKEPGLCPSVSSNDQQVPSAV

# Variants of: B1
# assay_notes: yeast two-hybrid growth selection (MaV203; Gal4BD-CRY2(1-535) library x Gal4AD-CIB1; URA3 reporter on SC -Trp/-Leu/-Ura) in the dark, deep sequencing before and after selection, Enrich2 scoring; three independent screens (one at 48 h, two …)
# experimental_setup: with CIB1 (CRYPTOCHROME-INTERACTING BASIC-HELIX-LOOP-HELIX 1), dark (no blue light), screens 1, 3 and 4, Svar > 0 = enriched under dark selection for CRY2-CIB1 two-hybrid growth (URA3 reporter), < 0 = depleted, relative to wild type (whose scores are 0). 'The Enrich2 software calculates, parent: 0, not an affinity, scale: Enrich2 score, numbering: uniprot, sequence starts at 1
metric: enrichment
Please state the value as a number alone, without comment.

// enrichment lookup, key: T351P -0.191

// enrichment lookup, key: Q333R 1.48

// enrichment lookup, key: W382L -0.17

// enrichment lookup, key: K368S 1.76

// enrichment lookup, key: W353C -0.321

// enrichment lookup, key: F328V -2.43

// enrichment lookup, key: A323D 0.677

// enrichment lookup, key: L385V 2.7

// enrichment lookup, key: I404S 1.61

// enrichment lookup, key: T351S -0.0139

// enrichment lookup, key: V367E -0.759

// enrichment lookup, key: K375R -0.0254

// enrichment lookup, key: E391D -0.531

// enrichment lookup, key: L371P -1.4

// enrichment lookup, key: A388T -0.454

// enrichment lookup, key: G407N 2.77

// enrichment lookup, key: W331C -0.871

// enrichment lookup, key: P339T -0.66

// enrichment lookup, key: D322V 0.286

// enrichment lookup, key: L371V 1.25

// enrichment lookup, key: A350T -0.108

// enrichment lookup, key: G337S -0.736

// enrichment lookup, key: D406E -0.152

// enrichment lookup, key: C392Y -1.08

// enrichment lookup, key: I394M 1.08

// enrichment lookup, key: E391K -0.425
